- test.target: Cy5-labelled Mcl1 (amino acids 171-321) C286S protein (UniProtKB Q07820) (Homo sapiens (Human), UniProt Q07820, C286S)
- Sequence (Q07820 171-321 C286S): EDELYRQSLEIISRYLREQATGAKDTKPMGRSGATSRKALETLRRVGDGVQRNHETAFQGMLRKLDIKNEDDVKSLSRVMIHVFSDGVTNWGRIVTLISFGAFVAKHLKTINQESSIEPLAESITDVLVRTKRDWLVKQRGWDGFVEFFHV
- test.protocol: Inhibition of Mcl-1 by the fluorescence quenching assay (Example A, Method B)
- Type: binding
So I've got a bunch of compounds here, and I need their pKi values.
Give bare numbers, as −log10 of the molar value.

1) Cc1oc(=O)oc1COC(=O)[C@]1(Nc2cccc(Cl)c2)CC[C@@]2(CC1)c1cc3c(cc1C[C@@H]2C[C@@H](C)COc1ccnc2c1[C@H](C)CCC2)OCO3 [Example 938]
8.61
2) CC[C@@H]1CCc2nccc(OC[C@H](C)C[C@H]3Cc4ccccc4[C@]34CC[C@@](Nc3cccc(Cl)c3)(C(=O)O)CC4)c21 [Example 612]
9.25
3) C[C@@H](COc1ccnc2c1[C@H](C)CC[C@H]2C)C[C@H]1Cc2cc3c(cc2[C@]12CC[C@@](Nc1cccc(Cl)c1)(C(=O)O)CC2)OCCO3 [Example 963]
10.63

We now examine a further compound.
In: # input compound: CC(O)c1ccc2c(c1)[C@]1(CC[C@@](Nc3cccc(Cl)c3)(C(=O)O)CC1)[C@@H](C[C@@H](C)COc1ccnc3c1[C@H](C)CC[C@H]3O)C2 (single isomer, unassigned) [Example 861] ; wanted: its pKi
Out: 10.04

###

- test.target: Mcl-1 protein (UniProtKB Q07820) (Homo sapiens (Human), UniProt Q07820)
- Sequence (Q07820 whole entry): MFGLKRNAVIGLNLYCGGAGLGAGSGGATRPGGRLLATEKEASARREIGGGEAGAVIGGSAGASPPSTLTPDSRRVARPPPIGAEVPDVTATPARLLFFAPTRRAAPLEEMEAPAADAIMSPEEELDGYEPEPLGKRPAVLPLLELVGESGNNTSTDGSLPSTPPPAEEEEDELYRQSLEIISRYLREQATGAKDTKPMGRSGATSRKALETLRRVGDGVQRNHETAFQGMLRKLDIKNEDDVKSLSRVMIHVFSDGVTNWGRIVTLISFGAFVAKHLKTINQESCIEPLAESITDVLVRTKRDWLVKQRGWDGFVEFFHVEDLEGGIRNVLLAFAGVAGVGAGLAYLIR
- test.protocol: Inhibition of Mcl-1 by the fluorescence polarisation assay (Example A, Method A)
- assay.conditions: fluorescence polarization assay
property.label: Ki (µM)
One number for each entry, in µM.

Please review the entries below; each comes with its answer.
1) O=C(O)[C@]1(Nc2cccc(Cl)c2)CC[C@]2(CC1)C(c1ccc(Oc3ccncc3)cc1)=Cc1ccccc12 [Example 342]
0.785
2) COc1cncnc1OCCCC1Cc2ccccc2[C@]12CC[C@@](Nc1cccc(Cl)c1)(C(=O)O)CC2 (some centres unmarked) [Example 438]
0.202
3) CN1c2ccc(I)cc2[C@]2(CC[C@](Nc3cccc(Br)c3)(C(=O)O)CC2)C1=O [Example 5]
22
4) CN(CCc1ccncc1)C(=O)C1Cc2ccccc2[C@]12CC[C@@](Nc1cccc(Cl)c1)(C(=O)O)CC2 (single isomer, unassigned) [Example 404]
7.78
5) COc1cccc(C2Cc3ccccc3[C@]23CC[C@@](Nc2cccc(Cl)c2)(C(=O)O)CC3)c1Cl (single isomer, unassigned) [Example 291]
2.54

Consider the following items and state reported Ki for each.
1. Cc1ccc(C2Cc3ccccc3[C@]23CC[C@@](Nc2cccc(Cl)c2)(C(=O)O)CC3)cc1 (single isomer, unassigned) [Example 307]
2. Cc1cc2c(OCCC[C@H]3Cc4ccccc4[C@]34CC[C@@](Nc3cccc(Cl)c3)(C(=O)O)CC4)cccc2[nH]1 [Example 482]
3. CC1=Nc2ccccc2[C@]12CC[C@](Nc1cccc(Br)c1)(C(=O)O)CC2 [Example 22]

Out:
[9.17, 0.317, 24.1]

Consider the following items and state reported Ki for each.
1. O=C(O)[C@]1(Nc2cccc(Cl)c2)CC[C@@]2(CC1)c1ccccc1C[C@@H]2c1ccc2occc2c1 [Example 282]
2. Cc1cncnc1OCCCC1Cc2ccccc2[C@]12CC[C@@](Nc1cccc(Cl)c1)(C(=O)O)CC2 (some centres unmarked) [Example 441]
3. O=C(O)[C@]1(Nc2cccc(Cl)c2)CC[C@@]2(CC1)c1ccccc1C[C@@H]2c1ccc(-c2ccccc2)o1 [Example 357]

Out:
1. 5.13
2. 0.0691
3. 15.4

###

- test.target: Cy5-labelled Mcl1 (amino acids 171-321) C286S protein (UniProtKB Q07820) (Homo sapiens (Human), UniProt Q07820, C286S)
- test.protocol: Inhibition of Mcl-1 by the fluorescence quenching assay (Example A, Method B)
- Assay type: binding
So I've got a bunch of compounds here, and I need their log10 Ki values.
For clarity, the numbers are log10 values of Ki expressed in nM.

Please review the entries below; each comes with its answer.
1. CC1CCNc2nccc(OC[C@H](C)C[C@H]3Cc4ccccc4[C@]34CC[C@@](Nc3cccc(Cl)c3)(C(=O)O)CC4)c21 (single isomer, unassigned) [Example 642]
-0.14
2. C[C@@H](COc1ccnc2c1[C@H](C)CCC2)C[C@H]1Cc2cc3c(cc2[C@]12CC[C@@](Nc1cccc(Cl)c1)(C(=O)O)CC2)CCC3
-1.05
3. C[C@@H](COc1ccnc2c1[C@H](C)CC[C@H]2O)C[C@H]1Cc2cc3c(cc2[C@]12CC[C@@](Nc1cccc(Cl)c1)(C(=O)O)CC2)OCCO3
-1.96
4. C[C@@H]1Cc2nccc(OC[C@H](C)C[C@H]3Cc4ccccc4[C@]34CC[C@@](Nc3cccc(Cl)c3)(C(=O)O)CC4)c2[C@@H](C)C1
1.46
5. C[C@@H](COc1ccnc2c1[C@H](C)CCC2)C[C@H]1Cc2cc3c(cc2[C@]12CC[C@@](Nc1cccc(Cl)c1)(C(=O)O)CC2)O[C@H](C)CCO3
-2.35

Consider the following items and state reported log10 Ki for each.
1. CC(C)[C@@H]1CCOc2cc3c(cc2O1)[C@]1(CC[C@@](Nc2cccc(Cl)c2)(C(=O)O)CC1)[C@@H](C[C@@H](C)COc1ccnc2c1[C@H](C)CCC2)C3
2. C[C@@H](COc1ccnc2c1[C@H](C)CCC2)C[C@H]1Cc2ccccc2[C@]12CC[C@@](Nc1ccc(F)c(Cl)c1F)(C(=O)O)CC2

Out:
1. -0.97
2. -0.23

###

- test.target: Mcl-1 protein (UniProtKB Q07820) (Homo sapiens (Human), UniProt Q07820)
- test.protocol: Inhibition of Mcl-1 by the fluorescence polarisation assay (Example A, Method A)
- assay.conditions: fluorescence polarization assay
property.label: Ki (nM)
One number for each entry, in nM.

Please review the entries below; each comes with its answer.
1. O=C(O)[C@]1(Nc2cccc(Cl)c2)CC[C@]2(CC1)C(c1cccc(Oc3ccncc3)c1)=Cc1ccccc12
74.3
2. O=C(O)[C@]1(Nc2cccc(Cl)c2)CC[C@@]2(CC1)c1ccccc1C[C@H]2c1cccc(Oc2ccccc2)c1
106

In: # input compound: O=C(O)[C@]1(Nc2cccc(Cl)c2)CC[C@@]2(CC1)c1ccccc1C[C@@H]2C[C@@H](COc1ccncc1)c1ccccc1 ; wanted: its Ki
Out: 110

###

- test.target: Mcl-1 protein (UniProtKB Q07820) (Homo sapiens (Human), UniProt Q07820)
- test.protocol: Inhibition of Mcl-1 by the fluorescence polarisation assay (Example A, Method A)
- assay.conditions: fluorescence polarization assay
Field 'label' (enum: Satisfied / Not satisfied). Set to Satisfied when Ki is strictly under 800 nM; else Not satisfied.

Record excerpt, results attached:
1. C[C@@H](COc1ccnc2c1CCC2)CC1Cc2ccccc2[C@]12CC[C@@](Nc1ccccc1)(C(=O)O)CC2 (some centres unmarked)
Satisfied
2. O=C(O)[C@]1(Nc2cccc(Cl)c2)CC[C@]2(CC1)C(C1CCC1)=Cc1ccccc12
Not satisfied
3. O=C(O)[C@]1(Nc2cccc(Cl)c2)CC[C@@]2(CC1)c1ccccc1C[C@@H]2c1cccc(Oc2ccccc2)c1
Not satisfied
4. O=C(O)[C@]1(Nc2cccc(Cl)c2)CC[C@@]2(CC1)c1ccccc1C[C@@H]2C[C@@H](COc1ccccc1)c1ccccc1
Not satisfied
5. O=C(O)[C@]1(Nc2cccc(Cl)c2)CC[C@@]2(CC1)c1ccccc1CC2CCCOc1cc(F)cc(Cl)c1 (some centres unmarked)
Satisfied

In: Could you please tell me whether Ki recorded for CC(C)C(COc1cccnc1)CC1Cc2ccccc2[C@]12CC[C@@](Nc1cccc(Cl)c1)(C(=O)O)CC2 (single isomer, unassigned) [Example 527] is less than 800 nM?
Out: Not satisfied

In: How about O=C(O)[C@]1(Nc2cccc(Cl)c2)CC[C@@]2(CC1)c1ccccc1CC2CCCOc1ccnc2c1CCC2F (some centres unmarked) ?
Out: Satisfied

###

- test.target: Cy5-labelled Mcl1 (amino acids 171-321) C286S protein (UniProtKB Q07820) (Homo sapiens (Human), UniProt Q07820, C286S)
- test.protocol: Inhibition of Mcl-1 by the fluorescence quenching assay (Example A, Method B)
- Assay type: binding
Field 'label' (enum: Criterion met / Criterion not met). Set to Criterion met when Ki is strictly under 1 nM; else Criterion not met.

Record excerpt, results attached:
1) COc1ccc2c(c1)[C@]1(CC[C@@](Nc3cccc(Cl)c3)(C(=O)O)CC1)[C@@H](C[C@@H](C)COc1ccnc3c1[C@@H](C)CCC3)C2
Criterion not met
2) C[C@@H](COc1ccnc2c1[C@H](C)CC[C@H]2F)C[C@H]1Cc2ccccc2[C@]12CC[C@@](Nc1cccc(Cl)c1)(C(=O)O)CC2
Criterion not met
3) C[C@@H](COc1ccnc2c1[C@H](C)CCC2)CC1=Cc2ccccc2[C@]12CC[C@@](Nc1cccc(Cl)c1)(C(=O)O)CC2
Criterion met
4) C[C@@H](COc1ccnc2c1[C@@H](C)CCC2)CC1=Cc2ccccc2[C@]12CC[C@@](Nc1cccc(Cl)c1)(C(=O)O)CC2
Criterion not met
5) COCCOCCOC(=O)[C@]1(Nc2cccc(Cl)c2)CC[C@@]2(CC1)c1cc3c(cc1C[C@@H]2C[C@@H](C)COc1ccnc2c1[C@H](C)CCC2)OCO3
Criterion not met

In: Could you please tell me whether Ki recorded for COc1ccccc1-c1ccc2c(c1)[C@]1(CC[C@@](Nc3cccc(Cl)c3)(C(=O)O)CC1)[C@@H](C[C@@H](C)COc1ccnc3c1[C@H](C)CCC3)C2 is less than 1 nM?
Out: Criterion met

In: How about CC(C)(COc1ccnc2sccc12)CC1Cc2ccccc2C12CCC(Nc1cccc(Cl)c1)(C(=O)O)CC2 (single isomer, unassigned) [Example 622] ?
Out: Criterion not met

In: How about CC1CCc2nccc(OC[C@H](C)CC3=Cc4ccccc4[C@]34CC[C@@](Nc3cccc(Cl)c3)(C(=O)O)CC4)c21 (single isomer, unassigned) [Example 630] ?
Out: Criterion not met

In: How about C[C@@H](COc1ccnc2c1[C@H](C)CC[C@H]2O)C[C@H]1Cc2ccccc2[C@]12CC[C@@](Nc1cccc(Cl)c1)(C(=O)O)CC2 [Example 676] ?
Out: Criterion met

In: How about C[C@@H](COc1ccnc2c1[C@H](C)CCC2)C[C@@H]1Cc2ccc(-c3ccc[nH]3)cc2[C@]12CC[C@@](Nc1cccc(Cl)c1)(C(=O)O)CC2 ?
Out: Criterion not met

In: How about O=C(O)[C@]1(Nc2cccc(Cl)c2)CC[C@@]2(CC1)c1ccccc1CC2CC(COc1ccnc2c1CCC2)COc1ccnc2c1CCC2 (single isomer, unassigned) [Example 498] ?
Out: Criterion met
